Recorded values, source patent US6472413B2.

Listed here are compounds together with their documented melting point.

Reference set (2 entries):
compound: CNC(=S)NS(=O)(=O)c1cc(CCNC(=O)/C=C/c2cccs2)ccc1OCC1CCCO1 (stereo not shown)
melting point: 78 °C

compound: CNC(=S)NS(=O)(=O)c1cc(CCNC(=O)/C=C/c2cccs2)ccc1OCC1CCCCO1 (stereo not shown)
melting point: 80 °C

Task: Which melting point value belongs to CNC(=S)NS(=O)(=O)c1cc(CCNC(=O)/C=C/c2cccs2)ccc1OCCOC(F)(F)F ?
Output: 161 to 163 °C

Task: Which melting point value belongs to CNC(=S)NS(=O)(=O)c1cc(CCNC(=O)/C=C/c2cccs2)ccc1-c1ccco1 ?
Output: 175 to 176 °C
